Kindly state pIC50 for each of the entries shown.
- MEASUREMENT TARGET: Recombinant human renin (Homo sapiens, UniProt P00797)
- Sequence (P00797 67-406): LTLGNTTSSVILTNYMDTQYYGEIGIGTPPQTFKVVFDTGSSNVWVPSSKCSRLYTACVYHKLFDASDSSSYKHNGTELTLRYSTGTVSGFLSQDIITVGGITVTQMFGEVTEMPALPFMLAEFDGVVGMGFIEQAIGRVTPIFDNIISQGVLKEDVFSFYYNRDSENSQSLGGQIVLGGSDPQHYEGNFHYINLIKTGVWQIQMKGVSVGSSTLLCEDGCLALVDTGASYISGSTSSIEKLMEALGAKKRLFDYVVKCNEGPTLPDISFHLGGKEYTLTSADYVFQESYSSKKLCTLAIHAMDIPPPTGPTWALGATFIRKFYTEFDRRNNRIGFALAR
- PROTOCOL TEXT: Inhibitory activity against human renin (fluorogenic peptide substrate)
- Assay type: biochemical
- EXPERIMENTAL CONDITIONS: 37° C. for 1 hour, read-out: IC50
Numbers only, as −log10 of the molar value.

Before answering, review these 5 worked examples.
| MOLECULE | pIC50 |
| --- | --- |
| COCCCn1nc(C)c2ccc([C@@H](C)N(C(=O)[C@H]3CNCCO3)C3CC3)nc21 [Example 44] | 8.52 |
| COC(=O)NCCCn1nc([C@@H](C)N(C(=O)[C@H]2CNCCO2)C2CC2)c2cccc(C)c21 [Example 62] | 9.22 |
| COC(=O)NCCCn1nc([C@@H](C)N(C(=O)[C@H]2CNCCO2)C2CC2)c2ccc(C(F)(F)F)nc21 [Example 72] | 9.15 |
| COC(=O)NCCCn1cc([C@@H](C)N(C(=O)[C@H]2CNCCO2)C2CC2)c2ncc(C)nc21 [Example 102] | 9.40 |
| COCCCCn1cc([C@@H](C)N(C(=O)[C@H]2CNCCO2)C2CC2)c2nccc(CCOC)c21 [Example 86] | 8.96 |

Please give pIC50, item by item, for the list that follows.
1. COC(=O)NCCCc1cccc([C@@H](C)N(C(=O)[C@H]2CNCCO2)C2CC2)c1 [Example 61]
2. COCCCCn1cc([C@H](C)N(C(=O)[C@H]2CNCCO2)C2CC2)c2nccc(OC)c21 [Example 51]
3. COCCCCn1cc([C@@H](C)N(C(=O)[C@H]2CNCCO2)C2CC2)c2nccc(OC)c21 [Example 52]
4. COCCCCn1cc([C@@H](C)N(C(=O)[C@H]2CNCCO2)C2CC2)c2nc(C)ccc21 [Example 56]
5. COCCCCn1cc([C@@H](C)N(C(=O)[C@H]2CNCCO2)C2CC2)c2cnc(C)nc21 [Example 103]
6. COc1ccc([C@@H](C)N(C(=O)[C@H]2CNCCO2)C2CC2)cc1CCCNC(=O)C(F)(F)F [Example 67]

Data returned:
[8.40, 8.06, 8.74, 8.38, 8.68, 8.05]

Please give pIC50, item by item, for the list that follows.
1. COC(=O)NCCCc1cc([C@@H](C)N(C(=O)[C@H]2CNCCO2)C2CC2)cc(Cl)n1 [Example 98]
2. COCCCCc1cc(C(C)N(C(=O)[C@H]2CNCCO2)C2CC2)cnc1OC (stereo partly shown) [Example 25]
3. COC(=O)NCCCn1nc([C@@H](C)N(C(=O)[C@H]2CNCCO2)C2CC2)c2ccc(C3CC3)nc21 [Example 82]

Data returned:
1: 8.55; 2: 8.20; 3: 9.30

Please give pIC50, item by item, for the list that follows.
1. COCCCCn1cc([C@@H](C)N(C(=O)[C@H]2CNCCO2)C2CC2)c2ncc(C)cc21 [Example 20]
2. COCCCCc1cc([C@@H](C)N(C(=O)[C@H]2CNCCO2)C2CC2)cc(OC)n1 [Example 78]

Data returned:
[9.30, 9.05]

----------
Kindly state log10(IC50) for each of the entries shown.
- MEASUREMENT TARGET: Recombinant human renin (Homo sapiens, UniProt P00797)
- PROTOCOL TEXT: Inhibitory activity against human renin (fluorogenic peptide substrate)
- Type: biochemical
- EXPERIMENTAL CONDITIONS: 50% inhibitory concentration (IC50) against human renin, 37° C. for 1 hour
Short version: log10 scale, IC50, nM.

Before answering, review these 5 worked examples.
| COMPOUND | MEASUREMENT TARGET | EXPERIMENTAL VALUE |
| --- | --- | --- |
| COC(=O)NCCCn1nc([C@@H](C)N(C(=O)[C@H]2CNCCO2)C2CC2)c2c1CCCC2 | Recombinant human renin (Homo sapiens, UniProt P00797) | -0.05 |
| COC[C@H]1CO[C@@H](C(=O)N(C2CC2)[C@H](C)c2cc(CCCNC(=O)OC)nc(OC)c2)CN1 | Recombinant human renin (Homo sapiens, UniProt P00797) | 0.48 |
| COC(=O)NCCCc1sc([C@@H](C)N(C(=O)[C@H]2CNCCO2)C2CC2)cc1-c1ccccc1CO | Recombinant human renin (Homo sapiens, UniProt P00797) | 0.11 |
| C=C(C)c1sc(C(C)N(C(=O)[C@H]2CNCCO2)C2CC2)cc1CCCNC(=O)OC (some centres unmarked) | Recombinant human renin (Homo sapiens, UniProt P00797) | 0.34 |
| COC[C@H]1CO[C@@H](C(=O)N(C2CC2)[C@H](C)c2cc(CCCNC(=O)OC)n(-c3ccccc3)n2)CN1 | Recombinant human renin (Homo sapiens, UniProt P00797) | -0.05 |

Please give log10(IC50), item by item, for the list that follows.
1. COC(=O)NCCCn1cc([C@@H](C)N(C(=O)[C@H]2CNC[C@@H](C)O2)C2CC2)nc1C(C)C
2. COC(=O)NCCCn1cc([C@@H](C)N(C(=O)[C@H]2CNCCO2)C2CC2)nc1C1CCOCC1
3. COC(=O)NCCCc1nc([C@@H](C)N(C(=O)[C@H]2CNCCO2)C2CC2)sc1-c1ccc(C)nc1

Data returned:
1: -0.52; 2: -0.22; 3: 0.04

Please give log10(IC50), item by item, for the list that follows.
1. COC[C@@H]1CNC[C@H](C(=O)N(C2CC2)[C@H](C)c2cc(CCCNC(=O)OC)n(C(C)C)n2)O1
2. COC(=O)NCCCc1nc([C@@H](C)N(C(=O)[C@H]2CNCCO2)C2CC2)cnc1N(C)C

Data returned:
-0.22
0.98

Please give log10(IC50), item by item, for the list that follows.
1. COC(=O)NCCCc1cc([C@@H](C)N(C(=O)[C@H]2CNCCO2)C2CC2)nc2ccc(OC)cc12
2. COC(=O)NC/C=C/c1cc([C@@H](C)N(C(=O)[C@H]2CNC[C@@H](C)O2)C2CC2)nn1-c1cccc(Cl)c1
3. COC(=O)NCCCn1cc([C@@H](C)N(C(=O)[C@H]2CNC[C@@H](C(F)(F)F)O2)C2CC2)nc1-c1ccccc1 [Example 203]

Data returned:
1: -0.30; 2: 0.11; 3: -0.30

Please give log10(IC50), item by item, for the list that follows.
1. COC(=O)NCCCc1nc([C@@H](C)N(C(=O)[C@H]2CNCCO2)C2CC2)sc1-c1ccccc1F
2. COC(=O)NCCCc1cc([C@@H](C)N(C(=O)[C@H]2CNCCO2)C2CC2)sc1-c1ccccc1C(=O)NS(=O)(=O)c1ccccc1

Data returned:
1. 0.53
2. -0.40

Please give log10(IC50), item by item, for the list that follows.
1. COC(=O)NCCCn1cc(C(C)N(C(=O)[C@H]2CNCCO2)C2CC2)c2ncc(F)cc21 (some centres unmarked)
2. COC(=O)NCCCc1cc([C@H](C)N(C(=O)[C@H]2CNC[C@@H](CN(C)C)O2)C2CC2)cc(OC)n1

Data returned:
1. 0.32
2. 0.75

Please give log10(IC50), item by item, for the list that follows.
1. COC(=O)NCCCc1nc([C@@H](C)N(C(=O)[C@H]2CNCCO2)C2CC2)sc1-c1cncnc1
2. COC(=O)NCCCc1cc([C@@H](C)N(C(=O)[C@H]2CNCCO2)C2CC2)sc1-c1cnc(N)nc1 [Example 409]
3. COC(=O)NCCCc1cc([C@@H](C)N(C(=O)[C@H]2CNC[C@@H](C)O2)C2CC2)nn1-c1ccccc1C
4. COC(=O)NCCCn1cc(C(C)N(C(=O)[C@H]2CNCCO2)C2CC2)c2ccnc(C)c21 (some centres unmarked)
5. COC(=O)NCCCn1nc([C@@H](C)N(C(=O)[C@H]2CNCCO2)C2CC2)cc1-c1ncccc1C
6. COC(=O)NC/C=C/c1cc([C@@H](C)N(C(=O)[C@H]2CNC[C@@H](C)O2)C2CC2)nn1-c1ccc(C(F)(F)F)cc1
7. COC(=O)NCCCc1cc(C(C)N(C(=O)[C@H]2CNCCO2)C2CC2)sc1C(C)C(F)(F)F (some centres unmarked)

Data returned:
1. 0.48
2. 0.00
3. -0.40
4. 0.79
5. -0.30
6. 0.71
7. 0.59

Please give log10(IC50), item by item, for the list that follows.
1. COC(=O)NCCCc1cc(C(C)N(C(=O)[C@H]2CNCCO2)C2CC2)sc1-c1cnc2[nH]ccc2c1 (some centres unmarked)
2. COC(=O)NCCCc1cc([C@@H](C)N(C(=O)[C@H]2CNCCO2)C2CC2)cnc1C1CCCC1
3. COC[C@H]1CO[C@@H](C(=O)N(C2CC2)[C@H](C)c2cc(CCCNC(=O)OC)n(C3CCOCC3)n2)CN1
4. COC(=O)NCCCc1cc([C@@H](C)N(C(=O)[C@H]2CNCCO2)C2CC2)nn1C(C)C
5. COC(=O)NCCCc1cc([C@@H](C)N(C(=O)[C@H]2CNCCO2)C2CC2)sc1-c1ccc(F)cn1

Data returned:
1: 0.83; 2: -0.40; 3: 0.20; 4: -0.30; 5: -1.00
